species on record: Bos taurus; assay: Displacement of ethidium from calf thymus DNA by fluorimetric method
Measured log10 C50 accompanies every entry in the list below.
quantity name: log10 C50 (log10 of the value in µM)

- compound smiles: "C[n+]1ccc(Nc2ccc(NC(=O)c3ccc(Nc4cc[n+](C)c5c(N)cccc45)cc3)cc2)cc1.[I-].[I-]"
  log10 C50: -0.07
- compound smiles: "Cc1ccc(S(=O)(=O)[O-])cc1.Cc1ccc(S(=O)(=O)[O-])cc1.Cc1cccc2c(Nc3ccc(C(=O)Nc4ccc(Nc5cc[n+](C)cc5)cc4)cc3)cc[n+](C)c12"
  log10 C50: -0.06
- compound smiles: "CC[n+]1ccc(Nc2ccc(NC(=O)c3ccc(Nc4cc[n+](CC)c5ccccc45)cc3)cc2)cc1.[Br-].[Br-]"
  log10 C50: 0.30
- compound smiles: "C[n+]1cccc(NC(=O)c2ccc(NC(=O)/C=C/c3ccc(C(=O)Nc4ccc(C(=O)Nc5ccc[n+](C)c5)cc4)cc3)cc2)c1.Cc1ccc(S(=O)(=O)[O-])cc1.Cc1ccc(S(=O)(=O)[O-])cc1"
  log10 C50: -0.52
- compound smiles: "C[n+]1cccc(NC(=O)c2ccc(NC(=O)c3ccc(C(=O)Nc4ccc(C(=O)Nc5ccc[n+](C)c5)cc4)c(Cl)c3)cc2)c1.Cc1ccc(S(=O)(=O)[O-])cc1.Cc1ccc(S(=O)(=O)[O-])cc1"
  log10 C50: 0.00
- compound smiles: "C[n+]1ccc(Nc2ccc(NC(=O)c3ccc(Nc4cc[n+](C)c5c(Cl)cccc45)cc3)cc2)cc1.Cc1ccc(S(=O)(=O)[O-])cc1.Cc1ccc(S(=O)(=O)[O-])cc1"
  log10 C50: 0.04
- compound smiles: "C[n+]1ccc(Nc2ccc(NC(=O)c3ccc(Nc4cc[n+](C)c5ccccc45)cc3)cc2N)cc1.[I-].[I-]"
  log10 C50: 0.35
- compound smiles: "C[n+]1cccc2ccc(NC(=O)c3ccc(NC(=O)c4ccc(C(=O)Nc5ccc6ccc[n+](C)c6c5)cc4)cc3)cc21.Cc1ccc(S(=O)(=O)[O-])cc1.Cc1ccc(S(=O)(=O)[O-])cc1"
  log10 C50: -0.80
- compound smiles: "CCCCC[n+]1cccc(NC(=O)c2ccc(NC(=O)c3ccc(C(=O)Nc4ccc(C(=O)Nc5ccc[n+](CCCCC)c5)cc4)cc3)cc2)c1.Cc1ccc(S(=O)(=O)[O-])cc1.Cc1ccc(S(=O)(=O)[O-])cc1"
  log10 C50: -0.42
- compound smiles: "C[n+]1ccccc1Nc1ccc(NC(=O)c2ccc(C(=O)Nc3ccc(Nc4cccc[n+]4C)cc3)cc2)cc1.Cc1ccc(S(=O)(=O)[O-])cc1.Cc1ccc(S(=O)(=O)[O-])cc1"
  log10 C50: 0.75
- compound smiles: "C/C(=N\\NC(=N)N)c1ccc(NC(=O)c2ccc(Nc3cc[n+](C)c4cc(N)ccc34)cc2)cc1.Cc1ccc(S(=O)(=O)O)cc1.Cc1ccc(S(=O)(=O)[O-])cc1"
  log10 C50: -0.28
- compound smiles: "C[n+]1ccc(Nc2ccc(NC(=O)c3ccc(Nc4cc[n+](C)c5ccccc45)cc3)cc2)cc1.[Br-].[Br-]"
  log10 C50: 0.15
